Assay: in vivo
Settings: cat, in vivo
Procedure: The pharmacological action of the new compounds according to the present invention was determined by the comparison of 12-dehydrodigoxin oxime (Compound 1 from) and 12-dehydrodigoxin-o-methyloxime (Compound 7 from) with digoxin, which is a known pharmaceutical for the treatment of cardiac insufficiency, using the following experimental procedure: The positive inotropic and cardiotoxic action was tested on cats with pentobarbital-induced heart insufficiency. […]
Kindly supply the reported selectivity ratio values for the records listed here.

[Q] Fill in: selectivity ratio of CON=C1C[C@H]2[C@@H](CC[C@@H]3C[C@@H](O[C@H]4C[C@H](O)[C@H](O[C@H]5C[C@H](O)[C@H](O[C@H]6C[C@H](O)[C@H](O)[C@@H](C)O6)[C@@H](C)O5)[C@@H](C)O4)CC[C@@]32C)[C@@]2(O)CC[C@H](C3=CC(=O)OC3)[C@@]12C [Compound 7, 12-Dehydrodigoxin--O-methyloxime] is ___
[A] 4.1

[Q] Next entry: C[C@H]1O[C@@H](O[C@H]2[C@@H](O)C[C@H](O[C@H]3[C@@H](O)C[C@H](O[C@H]4CC[C@@]5(C)[C@H](CC[C@@H]6[C@@H]5C[C@@H](O)[C@]5(C)[C@@H](C7=CC(=O)OC7)CC[C@]65O)C4)O[C@@H]3C)O[C@@H]2C)C[C@H](O)[C@@H]1O
[A] 2.75

[Q] Next entry: C[C@H]1O[C@@H](O[C@H]2[C@@H](O)C[C@H](O[C@H]3[C@@H](O)C[C@H](O[C@H]4CC[C@@]5(C)[C@H](CC[C@@H]6[C@@H]5CC(=NO)[C@]5(C)[C@@H](C7=CC(=O)OC7)CC[C@]65O)C4)O[C@@H]3C)O[C@@H]2C)C[C@H](O)[C@@H]1O [Compound 1, 12-Dehydrodigoxin oxime]
[A] 4.85

---

Assay: in vivo
Conditions: cat, in vivo
RECORDED_METRIC: TD50 (mg/kg)
State the answer as a number, implicitly in mg/kg.

[Q] Fill in: TD50 of C[C@H]1O[C@@H](O[C@H]2[C@@H](O)C[C@H](O[C@H]3[C@@H](O)C[C@H](O[C@H]4CC[C@@]5(C)[C@H](CC[C@@H]6[C@@H]5C[C@@H](O)[C@]5(C)[C@@H](C7=CC(=O)OC7)CC[C@]65O)C4)O[C@@H]3C)O[C@@H]2C)C[C@H](O)[C@@H]1O [digoxin] is ___
[A] 0.33

[Q] Next entry: CON=C1C[C@H]2[C@@H](CC[C@@H]3C[C@@H](O[C@H]4C[C@H](O)[C@H](O[C@H]5C[C@H](O)[C@H](O[C@H]6C[C@H](O)[C@H](O)[C@@H](C)O6)[C@@H](C)O5)[C@@H](C)O4)CC[C@@]32C)[C@@]2(O)CC[C@H](C3=CC(=O)OC3)[C@@]12C [Compound 7, 12-Dehydrodigoxin--O-methyloxime]
[A] 1.37

[Q] Next entry: C[C@H]1O[C@@H](O[C@H]2[C@@H](O)C[C@H](O[C@H]3[C@@H](O)C[C@H](O[C@H]4CC[C@@]5(C)[C@H](CC[C@@H]6[C@@H]5CC(=NO)[C@]5(C)[C@@H](C7=CC(=O)OC7)CC[C@]65O)C4)O[C@@H]3C)O[C@@H]2C)C[C@H](O)[C@@H]1O [Compound 1, 12-Dehydrodigoxin oxime]
[A] 0.51
